- procedure.text: ATG_GLI_CIS: Attagene CIS-FACTORIAL HepG2 Assay for human Zinc Finger Protein GLI1 (AID 2282945)
- conditions: HepG2, Attagene cis-factorial reporter mRNA, GLI element; actives raise or lower the signal
Activity calls are given as the source filed them. The calls were made as follows: active = hit-call score of the fitted dose curve at least 0.9, where 1 is the maximum; inactive = score below 0.9.
Your response should consist of one outcome taken from active, inactive

Recorded results for 6 compounds are shown here.
O=S(=O)(O)c1cccc2ccccc12
inactive
CC/C=C\CCCCCO
inactive
O=[N+]([O-])c1ccccc1C(F)(F)F
inactive
Cc1cccnc1
inactive
COC(OC)C(C)c1ccccc1 (configuration not stated)
inactive
CCCCCCCCCC/C=C/C1CC(=O)OC1=O (configuration not stated)
inactive

Q: Kindly provide the recorded test outcome for the following compound: Nc1ccc(S(=O)(=O)Nc2cnc3ccccc3n2)cc1
Result: inactive

Q: So what was the verdict on COc1cccc(OC)c1C(=O)O in this test?
Result: inactive

Q: For c1ccc2c(c1)Oc1ccccc1S2 , what call appears in the results of this test?
Result: active

====

- procedure.text: TOX21_p53_BLA_p5_viability: Viability Assessment in the Tox21 HCT-116 p53 Agonism Beta-lactamase Assay, Phase 5 (AID 2283600)
Inconclusive results are not listed. Active and inactive are the calls of the source. The calls were made as follows: active = hit-call score of the fitted dose curve at least 0.9, where 1 is the maximum; inconclusive = response in the unintended direction; inactive = score below 0.9.
Result category, one only: active, inactive

c1ccc(-c2ccc(C(c3ccccc3)n3ccnc3)cc2)cc1 (stereo unspecified)
inactive
N[C@H](CC(=O)O)C(=O)O
inactive
C=CCCCCCCC=C
inactive

Moving on to the next compound.
Q: // return assay outcome for C[N+](C)(CCOc1ccccc1)Cc1cccs1
Result: inactive

====

- Read-out: Tissue plasminogen activator (tPA), PLAT (gene 5327)
- procedure.text: BSK_BE3C_tPA: BioMAP Diversity Plus: BE3C Assay for Tissue plasminogen activator (tPA) Biomarker Activity (AID 2283041)
- conditions: primary human bronchial epithelial cells; actives raise or lower the signal
Activity calls are given as the source filed them. Rule for the calls: active = hit-call score of the fitted dose curve at least 0.9, where 1 is the maximum; inactive = score below 0.9.
reported.metric: AC50

CC(C)CC(=O)CC(C)CC(C)C (centres undefined)
29.4 µM (active)
CN(C)Cc1cc(C(C)(C)C)c(O)c(C(C)(C)C)c1
inactive
Cc1cc(-n2nc3ccc(Cl)cc3n2)c(O)c(C(C)(C)C)c1
inactive
COc1cc(CNC(=O)CCCC/C=C/C(C)C)ccc1O
inactive

====

- procedure.text: TOX21_p53_BLA_p4_viability: Viability Assessment in the Tox21 HCT-116 p53 Agonism Beta-lactamase Assay, Phase 4 (AID 2283597);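 also: hits lower the luminescence signal meaning cytotoxicity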
- From the text: TOX21_p53_BLA_p4 is a cell-based, single-readout assay that uses HCT116, a human intestinal cell line, […] in a 1536-well plate.TOX21_p53_BLA_p4_viability is an assay readout measuring cellular ATP content and detected with CellTiter-Glo Luciferase-coupled ATP quantitation.TOX21_p53_BLA_p4_viability used a type of viability reporter where loss-of-signal activity can be used to understand changes in the cell viability. […]
Results filed as inconclusive are left out. Calls of active or inactive are those of the source. How the source made its calls: active means hit-call score of the fitted dose curve at least 0.9, where 1 is the maximum; inconclusive means response in the unintended direction; inactive means score below 0.9.
Hello, when you answer, please use one of the following outcomes: active, inactive

CCCCN(CCCC)CC(O)c1cc(Cl)cc2c1-c1ccc(Cl)cc1/C2=C/c1ccc(Cl)cc1 (centres undefined)
inactive
Cc1cc(C(=O)O)ccc1[N+](=O)[O-]
inactive
C#C[C@]1(O)CC[C@H]2[C@@H]3CCC4=C/C(=N/O)CC[C@@H]4[C@H]3CC[C@@]21CC
active
O=C(/C=C/c1ccc([N+](=O)[O-])cc1)c1ccccc1
inactive
COc1cc2c(cc1OC)-c1cc3ccc(OC)c(OC)c3c[n+]1CC2
inactive

Consider the additional compound presented here.
Q: Record request — test call for CN1CCN(CCCN2c3ccccc3Sc3ccc(S(=O)(=O)N(C)C)cc32)CC1
Result: inactive
